# Test system: STAT3
# Test details: STAT3-dependent luciferase reporter assay in MDA-MB-231-STAT3 stable cells
# Format: cell-based, human
# Stated conditions: 20 μM, experiment 3, relative to DMSO
Give measured Rel. luciferase activity (%) 3 for each item. Keep answers brief.
Just the number in %, nothing appended.

Problem: Given COc1ccccc1N1C(=O)C(=Cc2ccc(Cl)cc2)C=C1c1ccccc1 , respond with its Rel. luciferase activity (%) 3.
Solution: 45.4

Problem: Given COc1cccc(N2C(=O)C(=Cc3ccc([N+](=O)[O-])cc3)C=C2c2ccccc2)c1 , respond with its Rel. luciferase activity (%) 3.
Solution: 81.2

Problem: Given Cc1ccc(N2C(=O)C(=Cc3ccc([N+](=O)[O-])cc3)C=C2c2ccccc2)cc1C [Compound A29] , respond with its Rel. luciferase activity (%) 3.
Solution: 113.3

Problem: Given CC(=O)Nc1ccc(N2C(=O)C(=Cc3ccc([N+](=O)[O-])cc3)C=C2c2ccccc2)cc1 , respond with its Rel. luciferase activity (%) 3.
Solution: 43.3

Problem: Given CN(C)c1ccc(N2C(=O)C(=Cc3ccc([N+](=O)[O-])cc3)C=C2c2ccccc2)cc1 , respond with its Rel. luciferase activity (%) 3.
Solution: 77.0

Problem: Given COc1ccc(N2C(=O)C(=Cc3ccc([N+](=O)[O-])cc3)C=C2c2ccccc2)cc1 , respond with its Rel. luciferase activity (%) 3.
Solution: 99.1

Problem: Given O=C1C(=Cc2ccc(-c3ccc([N+](=O)[O-])cc3)o2)C=C(c2ccccc2)N1c1ccccc1 , respond with its Rel. luciferase activity (%) 3.
Solution: 52.2

Problem: Given O=C1C(=Cc2ccc(Cl)cc2)C=C(c2ccccc2)N1c1ccc(Nc2ccccc2)cc1 , respond with its Rel. luciferase activity (%) 3.
Solution: 62.1

Problem: Given COC(=O)c1ccc(N2C(=O)C(=Cc3ccc(OC)cc3)C=C2c2ccccc2)cc1 , respond with its Rel. luciferase activity (%) 3.
Solution: 41.7

Problem: Given COc1ccc(N2C(=O)C(=Cc3ccc(-c4ccc([N+](=O)[O-])cc4)o3)C=C2c2ccccc2)cc1 , respond with its Rel. luciferase activity (%) 3.
Solution: 72.3

Problem: Given O=C1C(=Cc2ccc(-c3ccc([N+](=O)[O-])cc3)o2)C=C(c2ccccc2)N1c1ccccc1Cl , respond with its Rel. luciferase activity (%) 3.
Solution: 72.3

Problem: Given O=C1C(=Cc2ccc([N+](=O)[O-])cc2)C=C(c2ccccc2)N1c1cccc(Cl)c1 , respond with its Rel. luciferase activity (%) 3.
Solution: 88.8

Problem: Given O=C1C(=Cc2ccc([N+](=O)[O-])cc2)C=C(c2ccccc2)N1c1ccc(F)cc1 , respond with its Rel. luciferase activity (%) 3.
Solution: 43.0

Problem: Given O=C1C(=Cc2ccc(-c3ccc([N+](=O)[O-])cc3)o2)C=C(c2ccccc2)N1c1ccc(F)cc1 , respond with its Rel. luciferase activity (%) 3.
Solution: 91.7

Problem: Given O=C1C(=Cc2ccc(-c3ccc([N+](=O)[O-])cc3)o2)C=C(c2ccccc2)N1c1ccc(Cl)cc1 , respond with its Rel. luciferase activity (%) 3.
Solution: 71.0

Problem: Given O=C1C(=Cc2ccc(Cl)cc2)C=C(c2ccccc2)N1c1ccccc1Cl , respond with its Rel. luciferase activity (%) 3.
Solution: 74.2

---

# Test system: STAT3
# Test details: STAT3-dependent luciferase reporter assay in MDA-MB-231-STAT3 stable cells
# Assay type: cell-based, human
# Stated conditions: 20 μM, experiment 3, relative to DMSO
Give measured Rel. luciferase activity (%) 3 for each item. Keep answers brief.
Just the number in %, nothing appended.

Problem: Provide Rel. luciferase activity (%) 3, recorded with STAT3, of COc1cccc(N2C(=O)C(=Cc3ccc(-c4ccc([N+](=O)[O-])cc4)o3)C=C2c2ccccc2)c1
Solution: 55.4

Problem: Provide Rel. luciferase activity (%) 3, recorded with STAT3, of COc1ccc(N2C(=O)C(=Cc3ccc(Cl)cc3)C=C2c2ccccc2)cc1
Solution: 104.2

Problem: Provide Rel. luciferase activity (%) 3, recorded with STAT3, of O=C1C(=Cc2ccc([N+](=O)[O-])cc2)C=C(c2ccccc2)N1c1ccc(Cl)cc1
Solution: 49.9

Problem: Provide Rel. luciferase activity (%) 3, recorded with STAT3, of Cc1ccc(N2C(=O)C(=Cc3ccc(Cl)cc3)C=C2c2ccccc2)cc1[N+](=O)[O-]
Solution: 87.8

Problem: Provide Rel. luciferase activity (%) 3, recorded with STAT3, of COC(=O)c1ccc(N2C(=O)C(=Cc3ccc([N+](=O)[O-])cc3)C=C2c2ccccc2)cc1
Solution: 66.9

Problem: Provide Rel. luciferase activity (%) 3, recorded with STAT3, of O=C1C(=Cc2ccc([N+](=O)[O-])cc2)C=C(c2ccccc2)N1c1ccc(-c2ccccc2)cc1
Solution: 112.6

Problem: Provide Rel. luciferase activity (%) 3, recorded with STAT3, of Cc1ccc(N2C(=O)C(=Cc3ccc(-c4cc(Cl)ccc4Cl)o3)C=C2c2ccccc2)cc1[N+](=O)[O-]
Solution: 101.3
